Known logD of a selection of compounds
Experiment: Lipophilicity, log D of the compound at pH 7.4 by shake flask method
Assay type: physicochemical
Conditions: buffer
parameter-measured: logD

[[record]]
entry_smiles = "O=C(O)C[C@H](O)C[C@H](O)CCn1c(-c2ccc(F)cc2)nc(C(=O)NCc2ccccc2F)c1C1CC1"
val = 0.08

[[record]]
entry_smiles = "Cc1ccccc1CNC(=O)c1nc(-c2ccc(F)cc2)n(CC[C@@H](O)C[C@@H](O)CC(=O)[O-])c1C1CC1.[Na+]"
val = 0.44

[[record]]
entry_smiles = "CC(C)c1nc(N(C)S(C)(=O)=O)nc(-c2ccc(F)cc2)c1/C=C/[C@@H](O)C[C@@H](O)CC(=O)O"
val = 1.01

[[record]]
entry_smiles = "O=C([O-])C[C@H](O)C[C@H](O)CCn1c(-c2ccc(F)cc2)nc(C(=O)NCc2cccc(F)c2)c1C1CC1.[Na+]"
val = 0.51


Value source: ChEMBL document CHEMBL1781963
